- testName: label from the status in PepcDB records
outcomeMeasure: protein production

[[record]]
sequencechain = "MVMFRGHLLCFGLGYSALRLARGLLRDGWRVSGTCRSEEKRQALSAQGITAFVFDETTPLPAEAWTGVTHVLVSIPPGPDGDPVLALHRADLLALRPEWLGYFSTTGVYGDTGGAWVDEGKPVRPTQERSKRRVAAEEDWLDLWRDEDLPVHLLRLAGIYGPGRSVFDQLRAGTAKRIIRPGHAFSRIHVDDIGLITRASMADPDPGAIYNLVDDEPAEPSEVMDHACALLGIDPPPAQSFDEVAPGLSPMALSFWADNRKVSNERLWDDLRLRLLYPTFRQGLEAILAEETGRVAEGPPVYKEASDC"
outcomemeasure = "protein production"
result = "failed"

[[record]]
sequencechain = "MSLHGKLIQFHKFGNPKDVLQVEYKNIEPLKDNEVFVRMLVRPINPSDLIPITGAYAHRIPLPNIPGYEGVGIVENVGAFVSRELIGKRVLPLRGEGTWQEYVKTSADFVVPIPDSIDDFTAAQMYINPLTAWVTCTETLNLQRNDVLLVNACGSAIGHLFAQLSQILNFRLIAVTRNNKHTEELLRLGAAYVIDTSTAPLYETVMELTNGIGADAAIDSIGGPDGNELAFSLRPNGHFLTIGLLSGIQVNWAEIVTKAKVHANIFHLRHWNDEVSPYKWQETFRHLIRLVENEQLRFMKVHSTYELADVKAAVDVVQSAEKTKGKVFLTSYEGHHHHHH"
outcomemeasure = "protein production"
result = "not failed"

[[record]]
sequencechain = "MDPKSCENSSDVKGQTSDSVSKKVLIEEEEDVKKPQQGKENDSRMAKDVVSCSSNISAHVVHEEVADNVTAVSCNEAESDISKAKAKEFHTIDLSGVGERICRICHFGSDQSPEASGDDKSVSPELIEIGCKCKNELGLAHFHCAEAWFKLRGNR"
outcomemeasure = "protein production"
result = "failed"

[[record]]
sequencechain = "MRYFSTDSPEVKTIVAQDSRLFQFIEIAGEVQLPTKPNPFQSLVSSIVEQQLSIKAASAIYGRVEQLVGGALEKPEQLYRVSDEALRQAGVSKRKIEYIRHVCEHVESGRLDFTELEGAEATTVIEKLTAIKGIGQWTAEMFMMFSLGRLDVLSVGDVGLQRGAKWLYGNGEGDGKKLLIYHGKAWAPYETVACLYLWKAAGTFAEEYRSLEELLHHGNQC"
outcomemeasure = "protein production"
result = "not failed"

[[record]]
sequencechain = "MDDVLRRNPLFAALDDEQSAELRASMSEVTLARGDTLFHEGDPGDRLYVVTEGKVKLHRTSPDGRENMLAVVGPSELIGELSLFDPGPRTATGTALTEVKLLALGHGDLQPWLNVRPEVATALLRAVARRLRKTNDAMSDLVFSDVPGRVARALLDLSRRFGVQSEEGIHVVHDLTQEELAQLVGASRETVNKALADFAQRGWLRLEARAVILLDVERLAKRSR"
outcomemeasure = "protein production"
result = "failed"

[[record]]
sequencechain = "MIEGIIEEIRTNGSFLITTHENPDGDAVGSSLALAGYLRRLGKDVTIHFCDPVPDLYAFLPLAEEVTRTVPDRDYDICFVLDVGEFRRAGKQIAECKRIKKFINIDHHLTSDNFGFINYIDPKAAATGILVHRIITGAGDVVGYETALCLYTAIITDTGSFRYSNANPEAFAIAGELVSTGINTWSIAEKLYESQPRERLELLALALSTLTISPRGEYASITVTLDMYNKTGASAELTDGFVNYPRSIRGVEVSVFFREINPGLFKVGFRSKGKIDVSRIAAAFGGGGHHNAAGATMNGSLEGIKATLFSHLESTLLEHHHHHH"
outcomemeasure = "protein production"
result = "not failed"

[[record]]
sequencechain = "MADCDSVTNSPLATATATLHTNRGDIKIALFGNHAPKTVANFVGLAQGTKDYSTQNASGGPSGPFYDGAVFHRVIQGFMIQGGDPTGTGRGGPGYKFADEFHPELQFDKPYLLAMANAGPGTNGSQFFITVGKTPHLNRRHTIFGEVIDAESQRVVEAISKTATDGNDRPTDPVVIESITIS"
outcomemeasure = "protein production"
result = "not failed"

[[record]]
sequencechain = "MKALSPVRGCYEAVCCLSERSLAIARGRGKGPAAEEPLSLLDDMNHCYSRLRELVPGVPRGTQLSQVEILQRVIDYILDLQVVLAEPAPGPPDGPHLPIQTAELAPELVISNDKRSFCH"
outcomemeasure = "protein production"
result = "failed"

[[record]]
sequencechain = "MSGQTFEKIGGMFLDKQRKEGKSKATLDKTAYHLKLANHDFGKKPITAITAPMILRTLRKVEAKGNYETAHRLRARIGSVFRYAVASGLAETDPTYALRDALIRPTRQHLEHHHHHH"
outcomemeasure = "protein production"
result = "failed"

[[record]]
sequencechain = "KNVVHQLSVTLEDLYNGATRKLALQKNVICDKCEGRGGKKGAVECCPNCRGTGMQIRIHQIGPGMVQQIQSVCMECQGHGERISPKDRCKSCNGRKIVREKKILEVHIDKGMKDGQKITFHGEGDQEPGLEPGDIIIVLDQKDHAVFTRRGEDLFMCMDIQLVEALCGFQKPISTLDNRTIVITSHPGQIVKHGDIKCVLNEGMPIYRRPYEKGRLIIEFKVNFPENGFLSPDKLSLLEKLLPERKEVEETDEMDQVELVDFDPNQERRRHYNGEAYEDDEHHPRGGVQCQTS"
outcomemeasure = "protein production"
result = "failed"

[[record]]
sequencechain = "SATQIPSTISILATSDIHGNVLNYDYATGKAPTNTQGLAKVSSYVNSVRASKPNVMLIDDGDTIQGTPLSYYYDKIDTTSEYPLMKIMGAMKYDTWTLGNHEFNYGLPTLNRVISDARKENINVLSANTYNSDNTNFVNPYYIKTFNINGKTVNVGILGLTTKCIPDWEDPSHYAGLHFNDLVDEAKLWVPRMKAAGANVVIVAAHSGEEGAADTIPENQIKAIATNVSGIDAIVAGHAHVTVNDTSLKNPNGKTVPVVEPNKWGTFVSQIDITLDNSGNASTINTQNVKMTDSIPEDPNIVNIIQPYQNKTLDYIST"
outcomemeasure = "protein production"
result = "failed"

[[record]]
sequencechain = "NDNSPRFEKSVYEADLAENSAPGTPILQLRAADLDVGVNGQIEYVFGAATESVRRLLRLDETSGWLSVLHRIDREEVNQLRFTVMARDRGQPPKTDKATVVLNIKDENDNVP"
outcomemeasure = "protein production"
result = "not failed"


---

- testName: label from the status in PepcDB records
outcomeMeasure: protein production

[[record]]
sequencechain = "MRKITQAISAVCLLFALNSSAVALASSPSPLNPGTNVARLAEQAPIHWVSVAQIENSLAGRPPMAVGFDIDDTVLFSSPGFWRGKKNFSPESEDYLKNPVFWEKMNNGWDEFSIPKEVARQLIDMHVRRGDAIFFVTGRSPTKTETVSKTLADNFHIPATSMNPVIFAGDKPGQNTKSQWLQDKNIRIFYGDSDNDITAARDVGARGIRILRASNSTYKPLPQAGAFGEEVIVNSEY"
result = "failed"

[[record]]
sequencechain = "MSAFINQAAACAGDHAPRSAAQEARRGLRASLPVLLGFIPFALVLGAQATQKGLSVMEVPLMTGLNFGGGSEFTAIRLWTSPPHLLLIAAMSLLVNSRHLLMGAALAPYLRHVPRRRALAALFFMCDESWALALADAQSRATGRISLGYYLGVSAGLYLTWVVFTAIGAALGPVIGDVERYGFDMAFTAVFLVLLRGMWRGLRASRPWLASLAAAALTYRLMPDGAWYVAAGALAGLACAALTVPKEARA"
result = "failed"

[[record]]
sequencechain = "KSIRLAKEKESQADYISTYVEWQYIDKNITQCFDKMTNMKLEVAWKAKKKDTVVQIHNQDFTVDLSTNTATAPQGQTFTVQRLVKA"
result = "not failed"

[[record]]
sequencechain = "DDSLGEAVTTRAEALTIPAVLRARNLLSTTVARTPLVCDGTLPPFVPVAAPPGAATMQTPFHRMLATADDLLFNGVACWALDRDESGTCIGAIHIPLDTWQIEENTVRVNGKAVDPMEVCIFVGIHGGLLTHASETFTDARNLVRAAARVAQNPAALIELRQTNNAQLSPDDVDRIINGYVAARRGRNSGVGFSSSGLEVHEHEMAKENLLIEGRNAAAVDVARAMNVPAAFIDATVGGTSLSYQNAASRMIELVTFGVEPLMSAIEARLNQPDMHADHLANPLKFDPAALLDAIPTTPTIGAQPHGENS"
result = "not failed"

[[record]]
sequencechain = "KSLTLVLHRDSGSLGFNIIGGRPSVDNHDGSSSEGIFVSKIVDSGPAAKEGGLQIHDRIIEVNGRDLSRATHDQAVEAFKTAKEPIVVQVLRRT"
result = "not failed"

[[record]]
sequencechain = "MTRPIGIYEKATPKHFNWLERLQFAKELGFDFVELSIDESDERLARLEWSKEERLELVKAIFETGVRVPTITFSGHRRFPMGSNNPEKEARAMDMMKKCIVFAQDIGIRNIQLAGYDVYYEEKSPETRARFIKNLRQACTWAEEAQVILSIEIMDDPFMNSIEKYLAVEKEIDSPYLFVYPDTGNVSAWHNDLWSEFYNGHRSIAALHIKDTYAVTETSKGQFRDVPFGQGCVDWEEMFAVIKKTNYNGPFLIEMWSENCETVEETRAAIKEAQDFLYPLMEKTGVK"
result = "failed"

[[record]]
sequencechain = "MTQKTGALIFDETADRYDIRFDLNDYYGGLHCGDCLEVFVRGKWKPTRMEYGDNWYLVGVRASDLNGLRVRILEHHHHHH"
result = "failed"

[[record]]
sequencechain = "MRVDIVPVGDVPAHVKRQASSSLRSVYDCEVVVASEQDVPTAAYDEARSQYRAAEFIDTATRATSGDKTIAITPHDLFYRRRNYVFGLAYLDGRGCVVSTYRLQTSSDGGFSNRSSSDVFDDRVRKEVVHELGHTLGLEHCDNNRCAMNFSPTVREVDRKEENLCGSCQRTVFLEHHHHHH"
result = "not failed"

[[record]]
sequencechain = "MSLEEWIKADSLEKADEYHKRYNYAVTNPVRRKILRMLDKGRSEEEIMQTLSLSKKQLDYHLKVLEAGFCIERVGERWVVTDAGKIVDKIRG"
result = "not failed"

[[record]]
sequencechain = "MSQTRDLQGGKAFGLLKAQQEERLDEINKQFLDDPKYSSDEDLPSKLEGFKEKYMEFDLNGNGDIDIMSLKRMLEKLGVPKTHLELKKLIGEVSSGSGETFSYPDFLRMMLGKRSAILKMILMYEEKAREKEKPTGPPAKKAISELP"
result = "failed"

[[record]]
sequencechain = "MEKAMPESFVVRREAHLAAPPAAVFALMTDPEKILRWMGTEAEVEPEPGGLYLVNVTGARFARGSFREVVPVHRLAYSFGWDGSEVVPPGSSLVEIDLIEQGGGTLLRLTHSGLPSAEQCAGHEEGWAHYLGRLTEVAAGRDPGLEHHHHHH"
result = "failed"

[[record]]
sequencechain = "MATQARLPLPVGSTTSVSVVIPAKNVAAYVGETLASALAQGEVTEVIVVDDGSTDNTIAIVRAIRDPRLRLMTNDSAGVSAARNLGARHASGEWLLFLDADDRLRPGAVAALLAAARGAPRAVLVYGDYNTIDSEGRQVGRRDLLKGRRKPSGDVLTRLAASNFIVNGGIALARAEAFRAIGGFDTSLRYCEDWHCWCRLAAIGEFEFAPKLLLDYRLHTANTMNAAVRTPQDFFPAIARVFDDGLILARLPEGTAARLRQAAEIHLVTYSAMQAVRFGRYRQAFTYLGMVGRRSLKSLPRSALRVALACFGILEHHHHHH"
result = "failed"

[[record]]
sequencechain = "MNNKTNWVIIGRFGRPHGIKGFVTVHSFTDPADNILRYNDWHVFLNKQWQPLKLLTIEVRSKAIIAQIEGYPKRELVSALTNLDIGVQESQLAALAPGEYYWYQLIGMSVINSKGDLFGKVVEIMPTGSNDVLVVEGEKRHLIPYLPGQFVINVDESQQVITVDWDMNF"
result = "failed"

[[record]]
sequencechain = "NRDSLFNDPNAPVLGNPEGDVTVVEFFDYNCPYCRRAMAEVQGLVDADPNVRLVYREWPILGEGSDFAARAALAARQQGKYEAFHWALMGMSGKANETGVLRIAREVGLDTEQLQRDMEAPEVTAHIAQSMALAQKLGFNGTPSFVVEDALVPGFVEQSQLQDAVDRARKAA"
result = "not failed"

[[record]]
sequencechain = "MSLMIKVEDMMTRHPHTLLRTHTLNDAKHLMEALDIRHVPIVDANKKLLGIVSQRDLLAAQESSLQRSAQGDSLAFETPLFEVMHTDVTSVAPQAGLKESAIYMQKHKIGCLPVVAKDVLVGIITDSDFVTIAINLLELQEESEPDELDEEQEGHHHHHH"
result = "not failed"

